Kindly supply the reported pIC50 values for the records listed here.
Target: EGFR L858R (Homo sapiens, UniProt P00533, L858R)
Sequence (P00533 25-1210 L858R): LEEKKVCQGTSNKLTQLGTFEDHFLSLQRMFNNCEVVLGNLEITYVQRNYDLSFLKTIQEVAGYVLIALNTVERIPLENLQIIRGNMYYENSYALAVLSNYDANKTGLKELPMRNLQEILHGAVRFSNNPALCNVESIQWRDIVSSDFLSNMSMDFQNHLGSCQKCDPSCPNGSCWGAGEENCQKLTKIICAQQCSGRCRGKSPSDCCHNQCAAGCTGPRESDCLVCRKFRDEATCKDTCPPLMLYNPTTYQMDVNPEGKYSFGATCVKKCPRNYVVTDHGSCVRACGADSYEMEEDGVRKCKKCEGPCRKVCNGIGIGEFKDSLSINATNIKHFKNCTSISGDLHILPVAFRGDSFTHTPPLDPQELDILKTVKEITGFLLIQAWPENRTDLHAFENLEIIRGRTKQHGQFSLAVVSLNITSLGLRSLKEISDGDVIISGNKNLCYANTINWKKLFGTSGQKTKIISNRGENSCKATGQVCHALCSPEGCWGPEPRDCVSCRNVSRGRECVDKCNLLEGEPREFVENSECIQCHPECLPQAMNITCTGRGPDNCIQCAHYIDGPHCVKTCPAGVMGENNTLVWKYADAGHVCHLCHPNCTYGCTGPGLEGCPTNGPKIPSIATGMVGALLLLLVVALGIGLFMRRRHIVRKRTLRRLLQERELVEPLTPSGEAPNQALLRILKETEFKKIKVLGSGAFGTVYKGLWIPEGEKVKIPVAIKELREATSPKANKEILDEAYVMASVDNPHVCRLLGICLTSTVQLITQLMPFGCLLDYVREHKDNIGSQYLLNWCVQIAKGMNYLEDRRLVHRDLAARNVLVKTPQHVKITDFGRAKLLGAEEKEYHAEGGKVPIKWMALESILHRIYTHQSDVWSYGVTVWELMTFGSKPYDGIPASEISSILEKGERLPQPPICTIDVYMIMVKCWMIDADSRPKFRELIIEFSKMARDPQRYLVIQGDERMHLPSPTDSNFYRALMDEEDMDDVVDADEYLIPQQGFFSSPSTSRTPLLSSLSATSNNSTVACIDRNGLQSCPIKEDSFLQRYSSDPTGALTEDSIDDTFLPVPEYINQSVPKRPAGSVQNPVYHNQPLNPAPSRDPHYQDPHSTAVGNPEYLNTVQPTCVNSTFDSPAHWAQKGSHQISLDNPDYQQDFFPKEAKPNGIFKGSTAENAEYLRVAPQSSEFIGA
Assay: Kinase inhibitory activity against EGFR bearing the L858R mutation
Type: biochemical
Conditions: EGFR L858R; 10 μM ATP; read-out: IC50 for kinase inhibition, EGFR L858R
pIC50: −log10 of the molar value.

| chemical.structure | pIC50 |
| --- | --- |
| C=CC(=O)Nc1cc(Nc2ncc(Cl)c(Nc3ccccc3P(C)(C)=O)n2)c(OC)cc1N(C)CCN(C)CCF | > 7.30 |
| COCC#CC(=O)Nc1ccc(OC)c(Nc2ncc(Cl)c(Nc3ccccc3P(C)(C)=O)n2)c1 | > 7.30 |

-- ask Give the measured pIC50 of COc1ccc(NC(=O)/C=C/C2(NC(=O)OC(C)(C)C)CC2)cc1Nc1ncc(Cl)c(Nc2ccccc2P(C)(C)=O)n1 .
-- reply ≤ 6.60

// data source = patent US9834571B2
